- SYSTEM_TESTED: Chk2 (Homo sapiens, UniProt O96017)
- Sequence (O96017 whole entry): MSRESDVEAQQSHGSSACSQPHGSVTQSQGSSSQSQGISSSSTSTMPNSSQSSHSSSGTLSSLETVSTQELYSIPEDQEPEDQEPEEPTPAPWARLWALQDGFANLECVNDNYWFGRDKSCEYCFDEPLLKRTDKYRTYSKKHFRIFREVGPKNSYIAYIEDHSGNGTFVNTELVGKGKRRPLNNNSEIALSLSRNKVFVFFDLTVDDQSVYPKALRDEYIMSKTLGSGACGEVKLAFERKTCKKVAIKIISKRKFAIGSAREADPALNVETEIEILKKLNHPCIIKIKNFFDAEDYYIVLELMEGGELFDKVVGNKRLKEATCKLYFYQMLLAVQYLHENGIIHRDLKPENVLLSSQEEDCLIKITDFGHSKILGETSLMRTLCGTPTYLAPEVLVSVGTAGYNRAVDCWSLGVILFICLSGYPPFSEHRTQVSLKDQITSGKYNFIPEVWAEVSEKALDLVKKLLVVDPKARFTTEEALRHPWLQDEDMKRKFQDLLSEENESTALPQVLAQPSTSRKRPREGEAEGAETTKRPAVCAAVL
- ASSAY_PROCEDURE: Chk2 inhibitor IMAP assay (high-throughput Chk2 screening assay)
- CONDITION: IMAP fluorescence polarization assay, 10 μM ATP
pEC50: −log10 of the molar value.
compounds and their reported pEC50

{"COMPOUND": "CC(=NNC(=N)N)c1ccc(NC(=O)Nc2ccc3c(c2)CCC(C)C3=NNC(=N)N)cc1 (centres unmarked)", "SYSTEM_TESTED": "Chk2 (Homo sapiens, UniProt O96017)", "pEC50": "6.00 to 6.52"}
{"COMPOUND": "C/C(=N\\NC(=N)N)c1ccc2[nH]c(C(=O)Nc3ccc4cnccc4n3)cc2c1", "SYSTEM_TESTED": "Chk2 (Homo sapiens, UniProt O96017)", "pEC50": "< 5.00"}
{"COMPOUND": "CSc1ccc2cc(C(=O)Nc3ccc(/C(C)=N/NC(=N)N)cc3)[nH]c2c1", "SYSTEM_TESTED": "Chk2 (Homo sapiens, UniProt O96017)", "pEC50": "6.00 to 6.52"}
{"COMPOUND": "C/C(=N/NC(=N)N)c1ccc(NC(=O)Nc2ccc(/C(C)=N/NC(=N)N)cc2)cc1C", "SYSTEM_TESTED": "Chk2 (Homo sapiens, UniProt O96017)", "pEC50": "< 5.00"}
{"COMPOUND": "CCCC(=NNC(=N)N)c1ccc2[nH]c(C(=O)Nc3ccc4cc[nH]c4c3)cc2c1 (single isomer, unassigned) [Compound 112]", "SYSTEM_TESTED": "Chk2 (Homo sapiens, UniProt O96017)", "pEC50": "> 7.00"}
{"COMPOUND": "C/C(=N\\NC(=N)N)c1ccc(NC(=O)Nc2ccc(/C(=N/NC(=N)N)c3ccccc3)cc2)cc1 [Compound 55]", "SYSTEM_TESTED": "Chk2 (Homo sapiens, UniProt O96017)", "pEC50": "< 5.00"}
{"COMPOUND": "COc1ccc2nc(NC(=O)c3ccc(/C(C)=N/NC(=N)N)cc3)sc2c1", "SYSTEM_TESTED": "Chk2 (Homo sapiens, UniProt O96017)", "pEC50": "5.00 to 6.00"}
{"COMPOUND": "C/C(=N/NC(=N)N)c1ccc(NC(=O)c2cc3cc(OCc4ccccc4)ccc3[nH]2)cc1", "SYSTEM_TESTED": "Chk2 (Homo sapiens, UniProt O96017)", "pEC50": "5.00 to 6.00"}

----------
- SYSTEM_TESTED: Chk2 (Homo sapiens)
- ASSAY_PROCEDURE: Chk2 inhibitor IMAP assay (high-throughput Chk2 screening assay)
- CONDITION: IMAP fluorescence polarization assay, 10 μM ATP
Listed here are compounds together with their documented EC50.

{"COMPOUND": "C/C(=N\\NC(=N)N)c1ccc(NC(=O)c2cc3cc(C)ccc3[nH]2)cc1 [Compound 9]", "EC50": "100 to 300 nM"}
{"COMPOUND": "COc1cccc2cc(C(=O)Nc3ccc(/C(C)=N/NC(=N)N)cc3)oc12 [Compound 31]", "EC50": "300 to 1000 nM"}
{"COMPOUND": "C/C(=N/N=C(\\N)c1ccccn1)c1ccc(NC(=O)Nc2ccc(/C(C)=N/N=C(\\N)c3ccccn3)cc2)cc1 [Compound 13]", "EC50": "300 to 1000 nM"}
{"COMPOUND": "C/C(=N\\NC(=N)N)c1ccc(NC(=O)Nc2ccc(/C(=N/NC(=N)N)c3ccccc3)cc2)cc1 [Compound 54]", "EC50": "1000 to 10000 nM"}
{"COMPOUND": "C/C(=N\\NC(=N)N)c1ccc(NC(=O)c2cc3cccc(N)c3[nH]2)cc1 [Compound 77]", "EC50": "1000 to 10000 nM"}
{"COMPOUND": "COc1ccc2[nH]nc(C(=O)Nc3ccc(/C(C)=N/NC(=N)N)cc3)c2c1 [Compound 42]", "EC50": "> 10000 nM"}
{"COMPOUND": "CC(=NNC(N)=NO)c1ccc(NC(=O)c2cc3cccc([N+](=O)[O-])c3[nH]2)cc1 [Compound 118]", "EC50": "< 100 nM"}
{"COMPOUND": "C/C(=N\\NC(=N)N)c1ccc2[nH]c(C(=O)Nc3cccc4[nH]ccc34)cc2c1 [Compound 108]", "EC50": "1000 to 10000 nM"}
{"COMPOUND": "COc1cc([N+](=O)[O-])c2[nH]c(C(=O)Nc3ccc(/C(C)=N/NC(=N)N)cc3)cc2c1 [Compound 69]", "EC50": "< 100 nM"}
{"COMPOUND": "COc1ccc2[nH]c(C(=O)Nc3ccc(C(C)=NNC(N)=NO)cc3)cc2c1 [Compound 117]", "EC50": "< 100 nM"}
{"COMPOUND": "CC(=O)Nc1cccc2cc(C(=O)Nc3ccc(/C(C)=N/NC(=N)N)cc3)[nH]c12 [Compound 76]", "EC50": "300 to 1000 nM"}
{"COMPOUND": "C/C(=N\\NC(=N)N)c1ccc(NC(=O)Nc2ccc(C#N)cc2)cc1 [Compound 20]", "EC50": "< 100 nM"}
{"COMPOUND": "C/C(=N\\NC(=N)N)c1ccc(NC(=O)c2cc3c(C)cccc3[nH]2)cc1 [Compound 97]", "EC50": "1000 to 10000 nM"}
{"COMPOUND": "C/C(=N\\NC(=N)N)c1ccc(NC(=O)Nc2ccc(I)cc2)cc1 [Compound 38]", "EC50": "300 to 1000 nM"}
{"COMPOUND": "CNC(=O)Oc1ccc2[nH]c(C(=O)Nc3ccc(/C(C)=N\\NC(=N)N)cc3)cc2c1 [Compound 21]", "EC50": "100 to 300 nM"}
{"COMPOUND": "C/C(=N\\NC(=N)N)c1ccc2[nH]c(C(=O)Nc3ccc4nc(C)ccc4c3)cc2c1 [Compound 125]", "EC50": "100 to 300 nM"}
{"COMPOUND": "COc1cccc2sc(NC(=O)c3ccc(/C(C)=N\\NC(=N)N)cc3)nc12 [Compound 44]", "EC50": "> 10000 nM"}
{"COMPOUND": "C/C(=N/NC(=N)N)c1ccc2[nH]c(C(=O)Nc3ccc(-n4ccnc4)cc3)cc2c1 [Compound 127]", "EC50": "100 to 300 nM"}
{"COMPOUND": "C/C(=N\\NC(=N)N)c1ccc(NC(=O)c2cc3c(ccc4ccccc43)[nH]2)cc1 [Compound 107]", "EC50": "1000 to 10000 nM"}
{"COMPOUND": "COc1cc(OC)c2cc(C(=O)Nc3ccc(/C(C)=N/NC(=N)N)cc3)[nH]c2c1 [Compound 40]", "EC50": "1000 to 10000 nM"}
{"COMPOUND": "C/C(=N\\NC(=N)N)c1ccc2[nH]c(C(=O)Nc3ccc(C(N)=O)cc3)cc2c1 [Compound 115]", "EC50": "100 to 300 nM"}
{"COMPOUND": "C/C(=N\\NC(=N)N)c1ccc(NC(=O)Nc2ccc(Cl)cc2)cc1 [Compound 57]", "EC50": "1000 to 10000 nM"}
{"COMPOUND": "CSC(=N)N/N=C(\\C)c1ccc(NC(=O)Nc2ccc(C(C)=O)cc2)cc1 [Compound 64]", "EC50": "> 10000 nM"}
{"COMPOUND": "C/C(=N/NC(=N)N)c1ccc(NC(=O)Nc2ccc(/C(C)=N/N=C(\\N)c3ccccn3)cc2)cc1 [Compound 14]", "EC50": "300 to 1000 nM"}
{"COMPOUND": "CCNc1ccc2cc(C(=O)Nc3ccc(/C(C)=N/NC(=N)N)cc3)[nH]c2c1 [Compound 92]", "EC50": "300 to 1000 nM"}
{"COMPOUND": "COc1cc2cc(C(=O)Nc3ccc(/C(C)=N/NC(=N)N)cc3)[nH]c2cc1N [Compound 99]", "EC50": "300 to 1000 nM"}
{"COMPOUND": "C/C(=N\\N/C(N)=N/O)c1ccc(NC(=O)c2cc3cc(C(N)=O)ccc3[nH]2)cc1 [Compound 129]", "EC50": "300 to 1000 nM"}
{"COMPOUND": "COc1ccc2[nH]c(C(=O)Nc3ccc(/C(C)=N/NC4=NCCN4)cc3)cc2c1 [Compound 23]", "EC50": "< 100 nM"}
{"COMPOUND": "CCC/C(=N/NC(=N)N)c1ccc(NC(=O)c2cc3cc(OC)ccc3[nH]2)cc1 (single isomer, unassigned) [Compound 26]", "EC50": "300 to 1000 nM"}
{"COMPOUND": "CSC(=N)N/N=C(\\C)c1ccc(NC(=O)Nc2ccc(/C(C)=N/NC(=N)SC)cc2)cc1 [Compound 63]", "EC50": "1000 to 10000 nM"}
{"COMPOUND": "C/C(=N\\NC(=N)N)c1ccc(NC(=O)c2cc3cccc(/C(C)=N/NC(=N)N)c3[nH]2)cc1 [Compound 68]", "EC50": "1000 to 10000 nM"}
{"COMPOUND": "COc1ccc2nc(C(=O)Nc3ccc(/C(C)=N/NC(=N)N)cc3)sc2c1 [Compound 82]", "EC50": "1000 to 10000 nM"}
